# TARGET OR SYSTEM: Calcium/calmodulin-dependent protein kinase kinase 2 (Homo sapiens, UniProt Q96RR4)
# Sequence (Q96RR4 2-588 limits assumed): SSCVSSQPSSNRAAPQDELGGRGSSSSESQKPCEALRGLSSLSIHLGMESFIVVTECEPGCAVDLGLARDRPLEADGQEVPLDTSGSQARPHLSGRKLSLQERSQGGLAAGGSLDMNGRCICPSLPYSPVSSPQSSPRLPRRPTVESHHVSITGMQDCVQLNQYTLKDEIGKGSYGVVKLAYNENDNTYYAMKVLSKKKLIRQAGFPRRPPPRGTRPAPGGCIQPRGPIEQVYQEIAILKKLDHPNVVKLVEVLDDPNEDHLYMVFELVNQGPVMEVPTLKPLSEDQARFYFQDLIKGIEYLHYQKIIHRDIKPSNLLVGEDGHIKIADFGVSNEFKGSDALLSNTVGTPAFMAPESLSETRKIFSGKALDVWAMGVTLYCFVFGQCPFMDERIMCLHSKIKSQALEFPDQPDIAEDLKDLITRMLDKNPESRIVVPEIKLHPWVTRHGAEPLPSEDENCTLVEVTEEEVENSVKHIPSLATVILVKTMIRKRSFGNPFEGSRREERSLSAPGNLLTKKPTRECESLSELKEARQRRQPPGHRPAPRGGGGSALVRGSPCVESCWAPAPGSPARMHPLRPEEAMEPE
Please use class 1 for ΔTm under -0.1 °C and class 0 for everything else, ties included.

Examples with answers:
Q: Hi there! Is ΔTm for `Oc1cccc(-c2nc(N3CCOCC3)c3oc4ncccc4c3n2)c1` below -0.1 °C, do you know?
Ans: class 1

Q: Also check `CN(C)CCCn1cc(C2=C(c3c[nH]c4ccccc34)C(=O)NC2=O)c2ccccc21`
Ans: class 0

Q: Also need `O=[N+]([O-])c1ccc(-c2nc(-c3ccc(F)cc3)c(-c3ccncc3)[nH]2)cc1` , thanks.
Ans: class 1

Q: What would you report for `O=C(O)c1cc(N(Cc2ccccc2O)Cc2cc(O)ccc2O)ccc1O` ?
Ans: class 0

From here, focus on the item given below.
Q: Lab note: ΔTm threshold -0.1 °C. Does this compound come in strictly under it? CN(C)c1ccc(CC2C(=O)Nc3ccccc32)cc1 (configuration not stated)
Ans: class 0

====

Cyclin-dependent kinase 16 (Homo sapiens) (UniProt Q00536) measurements of ΔTm, listed per entry.
Sequence (Q00536 whole entry): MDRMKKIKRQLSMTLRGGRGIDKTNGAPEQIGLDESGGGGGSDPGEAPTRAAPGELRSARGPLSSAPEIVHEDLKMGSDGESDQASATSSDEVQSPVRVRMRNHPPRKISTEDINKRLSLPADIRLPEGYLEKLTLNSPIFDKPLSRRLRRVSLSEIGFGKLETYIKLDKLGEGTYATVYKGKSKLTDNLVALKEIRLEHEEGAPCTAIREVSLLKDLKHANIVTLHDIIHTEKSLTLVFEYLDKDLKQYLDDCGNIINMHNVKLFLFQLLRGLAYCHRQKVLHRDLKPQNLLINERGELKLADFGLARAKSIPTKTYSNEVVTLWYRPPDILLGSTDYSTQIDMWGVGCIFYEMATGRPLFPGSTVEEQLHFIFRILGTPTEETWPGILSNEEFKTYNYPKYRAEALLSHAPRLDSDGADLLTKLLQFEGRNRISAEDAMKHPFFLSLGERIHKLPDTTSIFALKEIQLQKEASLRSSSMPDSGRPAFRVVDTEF
# number then unit; no other words

Q: If you can, please state the reported ΔTm value of `O=c1cc(-c2ccc(O)cc2)oc2cc(O)cc(O)c12` .
Ans: 1.2 °C

Q: Check `Clc1ccc(Nc2nnc(Cc3ccncc3)c3ccccc23)cc1` too.
Ans: 0.2 °C

Q: One more compound: `COc1cc(/C=C/C(=O)CC(=O)/C=C/c2ccc(O)c(OC)c2)ccc1O`
Ans: 0.7 °C

Q: And what about the compound COC(=O)[C@]1(O)C[C@@H]2O[C@@]1(C)n1c3ccccc3c3c4c(c5c6ccccc6n2c5c31)C(=O)NC4 (single isomer, unassigned) ?
Ans: 0.8 °C

Q: Another: `CN(C)S(=O)(=O)c1ccc2c(c1)/C(=C/c1cc3c([nH]1)CCCC3)C(=O)N2`
Ans: 0.1 °C

Q: Item: `CCOC(=O)c1cnc2oc3ccc(O)cc3c2c1-c1ccccc1`
Ans: -0.6 °C

Q: Next up: `COc1cccc(-c2cc(=O)c3ccccc3o2)c1N`
Ans: -0.2 °C

Q: Query `CC(C)n1cnc2c(NCc3ccccc3)nc(NCCCO)nc21` next
Ans: -0.5 °C

Q: Let us now turn to `O=c1cc(N2CCOCC2)oc2c1ccc1ccccc12`
Ans: -0.4 °C

Q: Repeat for the following compound: `CC(C)(C)c1nc2c3ccc(F)cc3c3c(=O)[nH]ccc3c2[nH]1`
Ans: 0 °C

---
Q: Reported ΔTm, compound `O=c1sn(Cc2ccccc2)c(=S)n1Cc1ccccc1` : ____
Ans: -0.4 °C

Q: Then what about the compound `Cc1cncc2cccc(S(=O)(=O)N3CCCNC[C@@H]3C)c12` ?
Ans: -0.6 °C

Q: Same read-out for `N#C/C(=C(/N)Sc1ccc(N)cc1)c1ccccc1C(F)(F)F` ?
Ans: 0 °C

Q: Now give it for `CN(C)CCCn1cc(C2=C(c3c[nH]c4ccccc34)C(=O)NC2=O)c2ccccc21` too.
Ans: 3 °C

Q: Now give it for `O=c1c(-c2ccc(F)cc2)c(-c2ccncc2)[nH]n1-c1ccc(Cl)cc1` too.
Ans: 0.3 °C

Q: How about this compound: CN(C)CC1CCn2c(c(C3=C(c4c[nH]c5ccccc45)C(=O)NC3=O)c3ccccc32)C1 (stereo unspecified)
Ans: 3 °C

Q: Please answer likewise for `CCCNC(=O)Nc1ccc(Oc2ncnc3cc(OC)c(OC)cc23)cc1Cl`
Ans: -0.1 °C

Q: Cool, now `CCOc1cc2ncnc(Nc3cccc(Br)c3)c2cc1OCC`
Ans: -1 °C

Q: Follow-up entry: COc1ccc2c(c[n+](C)c3c4cc5c(cc4ccc23)OCO5)c1OC [CHELERYTHRINE CHLORIDE]
Ans: -0.2 °C

Q: Also `CCOC(=O)c1c(C)[nH]c(/C=C2\C(=O)Nc3ccccc32)c1C` ?
Ans: -0.2 °C

Q: What do you have for `COc1cc2ncnc(Nc3ccc(NC(=O)c4ccccc4)cc3)c2cc1OC` ?
Ans: -1.4 °C

====

# TARGET OR SYSTEM: Serine/threonine-protein kinase RIO2 (Homo sapiens)
Field: label. Allowed values: 1 (ΔTm < 0.4 °C) or -1 (ΔTm >= 0.4 °C).

Observe how each entry below is paired with its result.
Q: Please determine if `C=CNC#N` is below 0.4 °C in terms of ΔTm.
Ans: 1

Q: Another: `CN(C)CCCn1cc(C2=C(c3c[nH]c4ccccc34)C(=O)NC2=O)c2ccccc21`
Ans: 1

Q: `CN(c1cccnc1)c1cc2c(Nc3ccc(F)c(Cl)c3)c(C#N)cnc2cn1` ?
Ans: -1

Q: What about this compound? `COc1cc2ncnc(Nc3cccc(O)c3)c2cc1OC`
Ans: -1

Q: Same lookup for `O=c1c(O)c(-c2ccc(O)c(O)c2)oc2cc(O)cc(O)c12` , please.
Ans: -1

API: the following record is the query input.
Q: Field: below-cutoff. Rule: recorded ΔTm strictly less than 0.4 °C. Subject: `Ic1cccc(CSc2nnc(-c3ccncc3)o2)c1`
Ans: -1

====

# TARGET OR SYSTEM: Serine/threonine-protein kinase PLK1 (Homo sapiens) (UniProt P53350)
# Sequence (P53350 whole entry): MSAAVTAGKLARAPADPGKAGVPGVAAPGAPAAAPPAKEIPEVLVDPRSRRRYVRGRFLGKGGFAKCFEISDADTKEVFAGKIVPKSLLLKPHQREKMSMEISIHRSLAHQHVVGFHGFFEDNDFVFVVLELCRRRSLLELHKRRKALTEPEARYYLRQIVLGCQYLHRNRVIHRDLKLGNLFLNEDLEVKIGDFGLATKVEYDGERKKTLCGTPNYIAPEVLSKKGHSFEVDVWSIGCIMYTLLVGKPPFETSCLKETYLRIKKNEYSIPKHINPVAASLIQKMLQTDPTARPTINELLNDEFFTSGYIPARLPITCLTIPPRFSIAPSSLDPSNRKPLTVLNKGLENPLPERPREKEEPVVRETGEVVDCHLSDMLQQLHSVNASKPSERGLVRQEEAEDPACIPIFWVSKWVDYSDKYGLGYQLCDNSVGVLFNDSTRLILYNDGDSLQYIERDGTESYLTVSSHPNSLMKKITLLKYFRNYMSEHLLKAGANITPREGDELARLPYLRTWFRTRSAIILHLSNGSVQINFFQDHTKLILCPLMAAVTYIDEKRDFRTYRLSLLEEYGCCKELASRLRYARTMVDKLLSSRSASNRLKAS
// label = 1.0 if ΔTm is not less than 0.9 °C, otherwise 0.0

Please review the following examples before continuing.
Q: Evaluate O=c1c(O)c(-c2ccc(O)c(O)c2)oc2cc(O)cc(O)c12 [QUERCETIN] : ΔTm at minimum 0.9 °C?
Ans: 1.0

Q: What do you get for `O=Nc1c(-c2c(O)[nH]c3ccccc23)[nH]c2ccccc12` ?
Ans: 0.0

Q: And for `Clc1ccc(Nc2nnc(Cc3ccncc3)c3ccccc23)cc1` ?
Ans: 0.0

New cases:
Q: Given the entry `Nc1n[nH]c2nnc(-c3c(-c4ccccc4)nn4ccccc34)cc12` , answer whether its ΔTm meets or surpasses 0.9 °C.
Ans: 0.0

====

Consider molecules characterized by their ΔTm with Calcium/calmodulin-dependent protein kinase kinase 2 (Homo sapiens).
Report only the number, with the unit °C understood.

The following molecules have reported results that may help.
Q: Reported ΔTm, molecule O=C(Nc1cccc(Nc2nccc(Nc3cccc(C(F)(F)F)c3)n2)c1)C1CC1 [ANILINOPYRIMIDINE1] : ____
Ans: 2

Q: # repeat for `CN[C@@H]1CC2O[C@@](C)([C@@H]1OC)n1c3ccccc3c3c4c(c5c6ccccc6n2c5c31)C(=O)NC4`
Ans: 18.6

Q: Now consider `N=C(N)NCCNS(=O)(=O)c1cccc2cnccc12` and answer again.
Ans: -0.1

Q: Next record, please: CC(C)[C@H](CO)Nc1nc(Nc2cc(N)cc(Cl)c2)c2ncn(C(C)C)c2n1 [AMINOPURVALANOL]
Ans: 3.3

Q: Another molecule: `COc1cc2ncnc(Nc3ccc(F)c(Cl)c3)c2cc1OCCCN1CCOCC1`
Ans: 0.7

Q: Would you mind doing CN(C)C[C@@H]1CCn2cc(c3ccccc32)C2=C(C(=O)NC2=O)c2cn(c3ccccc23)CCO1 [RUBOXISTAURIN] as well?
Ans: 1.6

Next:
Q: GET /values?readout=ΔTm&item= `O=C1NC(=O)C(c2c[nH]c3ccccc23)=C1c1c[nH]c2ccccc12`
Ans: -0.4

Q: Please give the result for `Cc1ccc(NC2=CC(=O)c3sc(C)nc3C2=O)cc1` too.
Ans: -2.4

Q: Now the molecule `O=c1c(-c2ccc(O)cc2)coc2cc(O)cc(O)c12`
Ans: 1.3

Q: Can you check `NCCNc1ncc(C(N)=O)c(Nc2cccc(C(F)(F)F)c2)n1` next?
Ans: 0.6

Q: Moving on to `O=C1Nc2cc(Br)ccc2/C1=C1/Nc2ccccc2/C1=N\O`
Ans: 6.3

Q: Then what about the molecule `c1ccc(-c2n[nH]c3c2oc2ccccc23)cc1` ?
Ans: 2.5

Q: And what about the molecule `O=c1cc(N2CCOCC2)oc2c(-c3ccccc3)cccc12` ?
Ans: 0.4

====

The reader will find reported ΔTm values listed item by item below.
# TARGET OR SYSTEM: Calcium/calmodulin-dependent protein kinase type IV (Homo sapiens)
Kindly provide the numeric value in °C only, without the unit symbol.

Consider the reported ΔTm for these compounds:
Q: Quick one: ΔTm for `Ic1cccc(CSc2nnc(-c3ccncc3)o2)c1` ?
Ans: -0.5

Q: Please do the same for `O=C1c2ccccc2-c2n[nH]c3cccc1c23` as well.
Ans: 1.5

New cases:
Q: Entry `CCN(CC)CCNC(=O)c1c(C)[nH]c(/C=C2\C(=O)Nc3ccc(F)cc32)c1C` : reported ΔTm = ?
Ans: 6

Q: Also need CCCNC(=O)Nc1ccc(Oc2ncnc3cc(OC)c(OC)cc23)cc1Cl [KRN-633] , thanks.
Ans: 0.9

Q: Likewise for `O=c1c(-c2ccc(O)cc2)coc2cc(O)cc(O)c12` ?
Ans: -0.8

Q: Now the same for `Cc1cc(C=C2C(=O)C=CC2=O)cc(C)c1O`
Ans: -0.1
